Reference source: PubChem BioAssay AID256

- Test system: CD2F1 mice, L1210 leukemia ip, survival T/C
- experiment summary: NCI In Vivo Anticancer Drug Screen. Data for tumor model L1210 Leukemia (intraperitoneal) in CD2F1 (CDF1) mice
- assay setup: endpoint: mean survival time; dose: 200.0 mg/kg/injection; schedule: Q04DX003 (ip); vehicle: saline with Tween-80; higher = longer survival
Toxic doses and inconclusive results are not listed.
Consider the following compounds; for each one, report its T/C.

# count of solved cases: 2
O=C1CCN(Cc2ccccc2)C(=O)N1 = 97 % of control
O=C1c2ccccc2C(=O)N1CCCCCBr = 91 % of control

Could you report T/C for every entry in the following list?
1. COC(=O)CCC(=O)N(C)CCc1c[nH]c2ccccc12
2. OC1(c2ccccc2)C(N2CCOCC2)=C(c2ccccc2)c2ccccc21 (centres undefined)
3. O=C([O][Sb]([O]C(=O)C(Cl)(Cl)Cl)([c]1ccccc1)([c]1ccccc1)[c]1ccccc1)C(Cl)(Cl)Cl
4. O=C(Nc1cc(C(F)(F)F)ccc1Cl)c1ccccc1Cl
5. Nc1ccc(-c2ccc(N)cc2)cc1

Reply:
["93 % of control", "100 % of control", "93 % of control", "103 % of control", "101 % of control"]

// for each compound below, give its T/C
1. Cc1ccc(NC(=O)c2ccccc2Cl)cc1C
2. O=[N+]([O-])c1ccc(Cl)c2ncccc12
3. C=Cc1ccc(C(N)=O)cc1
4. Cc1ccc(C2(C#N)CCCC2)cc1
5. CCCC(CC)C(=O)CC1CCCCC1 (centres undefined)
6. O=C1C(c2ccccc2)=C(c2ccccc2)CC1O (centres undefined)

Reply:
103 % of control
104 % of control
98 % of control
97 % of control
94 % of control
91 % of control

Query: For the compound ICC1COC(CI)CO1 (centres undefined) , what T/C is on record?
Reply: 110 % of control

----------
For each entry below, report its T/C value.
- Tested on: CD2F1 mice, L1210 leukemia ip, survival T/C
- experiment summary: NCI In Vivo Anticancer Drug Screen. Data for tumor model L1210 Leukemia (intraperitoneal) in CD2F1 (CDF1) mice
- assay setup: endpoint: mean survival time; dose: 400.0 mg/kg/injection; schedule: Q04DX002 (ip); vehicle: saline with Tween-80; higher = longer survival
Inconclusive results and toxic doses are left out.

Example compounds with recorded T/C:
CCNC(=O)C(=O)NCC = 103 % of control
O=C(O)C1C2C=CC3(O2)C(=O)N(Cc2ccccc2)C(=O)C13 (configuration not stated) = 98 % of control

// each compound listed below needs its T/C
1. Nc1nc2c(ncn2-c2ccc(OCCNC(=O)Nc3cccc(S(=O)(=O)F)c3)cc2)c(=O)[nH]1
2. CCCCC(=O)/C=C/c1ccccc1
3. O=S1(=O)OC2(CCCCC2)c2ccccc21
4. CCCCCCCCCCCCCCCCC(Br)C(=O)c1ccccc1 (configuration not stated)
5. COC(=O)c1cccn1C(=O)c1ccc(C)c(OCc2ccccc2)c1[N+](=O)[O-]
6. COc1c(C)c2c(c3c1CC(=O)O3)C(=O)OC2

Reply:
["90 % of control", "91 % of control", "93 % of control", "111 % of control", "93 % of control", "112 % of control"]

# return T/C for each item in the list
1. Clc1ccc(SSc2ccc(Cl)cc2Cl)c(Cl)c1
2. CC(C)OC(=O)N(C(=O)OC(C)C)c1ccc(Cl)cc1
3. NC(=S)N/N=C\c1nccc2c(C(F)(F)C(F)(F)C(F)(F)F)cccc12
4. O=C(O)C1CC(n2cnc3c(=O)[nH]cnc32)CN1 (configuration not stated)
5. N#C/C(=C\C1CCC2OCOC2C1)C1CCC([N+](=O)[O-])CC1 (configuration not stated)
6. CC1=CCC(c2ccccc2)NC(=O)C1 (configuration not stated)

Reply:
["95 % of control", "102 % of control", "96 % of control", "93 % of control", "91 % of control", "104 % of control"]

Would you mind listing T/C for each of the following compounds?
1. [O-]/[N+](=C\Cc1ccccc1)c1ccccc1
2. COc1ccc(-n2c(=O)[nH]c3c(c2=O)C(c2ccc(Cl)cc2)C(C)(C)O3)cc1 (configuration not stated)

Reply:
1: 90 % of control; 2: 103 % of control

Please go through the list and note T/C for each compound.
1. CCCCCCCCCCCC(=O)NC(=S)Nc1cc(Cl)ccc1Cl
2. Cc1ccccc1NC(=O)Oc1cccc(OC(=O)c2ccccc2)c1
3. O=C(CC(=O)c1ccc(Cl)cc1)Cc1ccc2ccccc2n1
4. O=C1C=C(c2ccccc2)C(=O)C(c2ccccc2)=C1c1ccccc1
5. NC(=O)C(c1cccs1)c1cccs1

Reply:
98 % of control
91 % of control
97 % of control
90 % of control
90 % of control

Query: Checklist item: T/C tested on CD2F1 mice, L1210 leukemia ip, survival T/C, entry S=C(Nc1ccccn1)c1ccccn1 , value?
Reply: 103 % of control
